// provenance: the supplement of paper PMC6757056

B1: library; a variant is named by its letters at N, in order (parent)
chain: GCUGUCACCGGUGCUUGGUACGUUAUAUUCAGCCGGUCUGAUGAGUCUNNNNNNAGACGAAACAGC

Variants of: B1
Test: normalized RNA/DNA level without ligand (relative to sTRSVctl = 100) (log10 (% of sTRSVctl)); HEK293T overexpressing SLC46A1; higher = less ribozyme self-cleavage, higher mRNA level
Settings: without (6R,S)-folinic acid; ligand present: no
property-label: normalized RNA/DNA level without ligand (log10)
# print the numeric value only

The following variants have reported results that may help.
[
  {
    "mutation-label": "CGGGGC",
    "experimental-value": 2.03
  },
  {
    "mutation-label": "UGGCCG",
    "experimental-value": 2.01
  }
]

Find the measured normalized RNA/DNA level without ligand (log10) of CGACUA and report it.
2.01

Find the measured normalized RNA/DNA level without ligand (log10) of GGAACA and report it.
2.01

Find the measured normalized RNA/DNA level without ligand (log10) of AACCAA and report it.
1.99

Find the measured normalized RNA/DNA level without ligand (log10) of GCCCCG and report it.
2.04

Find the measured normalized RNA/DNA level without ligand (log10) of GCCUCA and report it.
2.04

Find the measured normalized RNA/DNA level without ligand (log10) of CCUCUA and report it.
2.03
